# assayedSystem: PDE5A3 (Homo sapiens)
# testProtocol: In vitro PDE selectivity assay (SPA), PDE5A3
# Assay type: biochemical
# condition: hPDE5A3; read-out: PDE 5A3 (expressed as pIC50) (converted)
metric: IC50 (µM)

Some entries whose results are on file:
compoundStructureString: COCCn1cc(-c2c(C)nc3c(-c4ccncc4)cc(C)nn23)cn1
endpointUnit: µM
testResult: 0.589
--
compoundStructureString: COCCn1cc(-c2c(C)nc3c(N4CCOCC4)cc(C)nn23)cn1
endpointUnit: µM
testResult: 2.4
--
compoundStructureString: CCc1ccc(-c2c(C)nc3c(N4CCOCC4)ccnn23)cn1
endpointUnit: µM
testResult: 13.8
--
compoundStructureString: COCCc1ccc(-c2c(C3CC3)nc3c(N4CCOCC4)ccnn23)cn1
endpointUnit: µM
testResult: 3.47
--
compoundStructureString: COCCOc1ccc(-c2c(C)nc3c(-c4ccncc4)ccnn23)cn1
endpointUnit: µM
testResult: 19.1
--
compoundStructureString: COCCc1ccc(-c2c(C)nc3c(N4CCOCC4)ccnn23)cn1
endpointUnit: µM
testResult: 17

(1) Cc1nc2c(N3CCOCC3)ccnn2c1-c1ccnc(N2CCOCC2)c1
(2) c1cc(-c2ccnn3c(-c4ccc(N5CCOCC5)nc4)cnc23)ccn1
(3) CC(C)Cn1cc(-c2c(C3CC3)nc3c(-c4ccncc4)ccnn23)cn1
Req: Sort the 3 compounds by IC50; largest first, smallest last. Sort and list the labels as requested.
Resp: 1, 2, 3

* * *

# assayedSystem: PDE5A3 (Homo sapiens)
# testProtocol: In vitro PDE selectivity assay (SPA), PDE5A3
# Type: biochemical
# condition: hPDE5A3; read-out: PDE 5A3 (expressed as pIC50) (converted)
metric: IC50 (nM)

Some entries whose results are on file:
compoundStructureString: COCCn1cc(-c2c(C3CC3)nc3c(-c4ccncc4)ccnn23)cn1
assayedSystem: PDE5A3 (Homo sapiens)
endpointUnit: nM
testResult: 1150
//
compoundStructureString: COCCc1ccc(-c2c(C3CC3)nc3c(-c4ccncc4)ccnn23)cn1
assayedSystem: PDE5A3 (Homo sapiens)
endpointUnit: nM
testResult: 1290

(A) COCCn1cc(-c2c(C)nc3c(-c4ccncc4)cc(Cl)nn23)cn1
(B) CCc1nc2c(N3CCOCC3)ccnn2c1-c1cnn(CCOC)c1
(C) Cc1nc2c(-c3ccncc3)ccnn2c1-c1cnn(CC(C)C)c1
Req: Sort the 3 compounds by IC50; largest first, smallest last. Sort and list the labels as requested.
Resp: B, C, A

* * *

# assayedSystem: other members of the PDE family (Homo sapiens, UniProt O00408)
# Sequence (O00408 whole entry): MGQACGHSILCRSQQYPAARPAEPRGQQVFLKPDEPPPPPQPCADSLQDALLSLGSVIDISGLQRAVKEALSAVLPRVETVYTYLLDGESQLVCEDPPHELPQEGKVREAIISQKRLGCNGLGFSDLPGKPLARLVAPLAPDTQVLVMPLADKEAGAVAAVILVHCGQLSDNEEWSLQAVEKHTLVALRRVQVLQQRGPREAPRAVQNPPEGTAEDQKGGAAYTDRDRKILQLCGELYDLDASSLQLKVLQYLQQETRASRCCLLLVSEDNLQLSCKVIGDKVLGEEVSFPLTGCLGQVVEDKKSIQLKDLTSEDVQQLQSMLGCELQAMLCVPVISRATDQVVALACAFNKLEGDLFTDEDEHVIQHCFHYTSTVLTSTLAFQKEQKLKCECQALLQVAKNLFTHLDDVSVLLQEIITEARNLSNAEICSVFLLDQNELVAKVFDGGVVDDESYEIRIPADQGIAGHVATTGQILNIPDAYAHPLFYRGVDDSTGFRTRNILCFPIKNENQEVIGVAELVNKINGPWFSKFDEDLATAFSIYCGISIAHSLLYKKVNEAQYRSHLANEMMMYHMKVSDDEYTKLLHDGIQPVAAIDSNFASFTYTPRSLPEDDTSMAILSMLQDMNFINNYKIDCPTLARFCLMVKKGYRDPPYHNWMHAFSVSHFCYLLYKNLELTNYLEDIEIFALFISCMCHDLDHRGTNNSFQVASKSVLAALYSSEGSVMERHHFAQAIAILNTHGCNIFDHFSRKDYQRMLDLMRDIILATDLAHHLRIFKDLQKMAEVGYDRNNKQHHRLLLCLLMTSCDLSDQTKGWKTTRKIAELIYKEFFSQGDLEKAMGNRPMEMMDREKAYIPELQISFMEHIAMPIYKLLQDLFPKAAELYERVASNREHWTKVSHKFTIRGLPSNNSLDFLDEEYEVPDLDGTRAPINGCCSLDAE
# testProtocol: In vitro PDE selectivity assay (SPA), other members of the PDE family (protocols in Table A)
# Type: biochemical
# condition: hPDE2A; read-out: PDE 2A (expressed as pIC50) (converted)
Reported IC50 values are given for each entry in this list.

compoundStructureString: c1cc(N2CCOCC2)c2ncc(-c3ccc(C4CC4)nc3)n2n1
IC50: 8.13 µM
--
compoundStructureString: CC(C)(O)Cc1ccc(-c2c(C3CC3)nc3c(N4CCOCC4)ccnn23)cn1
IC50: > 10 µM
--
compoundStructureString: Cc1nc2c(N3CCOCC3)cc(C3CC3)nn2c1-c1ccc(N2CCOCC2)nc1
IC50: > 10 µM
--
compoundStructureString: Cc1nc2c(N3CCOCC3)cc(Cl)nn2c1-c1cnn(CC(F)(F)F)c1
IC50: > 10 µM

Turning to the following compound.
Req: What value of measured IC50 is listed for CCc1ccc(-c2c(C3CC3)nc3c(N4CCOCC4)cc(C)nn23)cn1 ?
Resp: > 10 µM
